B1: library; numbered along this chain (parent)
chain: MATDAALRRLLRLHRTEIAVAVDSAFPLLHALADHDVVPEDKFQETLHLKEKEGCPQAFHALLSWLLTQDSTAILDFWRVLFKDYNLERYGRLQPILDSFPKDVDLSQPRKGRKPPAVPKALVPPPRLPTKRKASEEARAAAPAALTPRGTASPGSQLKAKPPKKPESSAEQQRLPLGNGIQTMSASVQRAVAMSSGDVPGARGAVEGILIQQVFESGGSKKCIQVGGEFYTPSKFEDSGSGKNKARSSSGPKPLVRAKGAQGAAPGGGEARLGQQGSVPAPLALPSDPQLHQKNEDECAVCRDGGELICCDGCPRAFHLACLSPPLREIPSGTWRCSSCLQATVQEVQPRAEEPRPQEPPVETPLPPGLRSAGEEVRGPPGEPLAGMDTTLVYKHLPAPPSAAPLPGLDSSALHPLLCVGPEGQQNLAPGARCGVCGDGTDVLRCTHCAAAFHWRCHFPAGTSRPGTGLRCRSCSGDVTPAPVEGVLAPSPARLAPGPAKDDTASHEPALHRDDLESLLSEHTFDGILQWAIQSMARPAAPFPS

Variants of: B1
Assay info: AIRE transcriptional activation functional score (insulin promoter-GFP; nonsense median 0, synonymous median 1) (normalised score); higher = higher AIRE activity (more reporter activation)
Measurement conditions: with insulin promoter-GFP reporter in HEK293
Attribute: AIRE transcriptional activation functional score
Readout kind: AIRE transcriptional activation functional score

Mutation: P252Q
Recorded value: 0.904

Mutation: D304E
Recorded value: 0.883

Mutation: G440L
Recorded value: 0.997

Mutation: R139S
Recorded value: 0.893

Mutation: S411E
Recorded value: 0.407

Mutation: F26H
Recorded value: -0.678

Mutation: S324V
Recorded value: 0.994

Mutation: K42M
Recorded value: 0.538

Mutation: L7K
Recorded value: -0.0956

Mutation: V199T
Recorded value: 0.462

Mutation: P381K
Recorded value: 1.04

Mutation: P326M
Recorded value: -0.264

Mutation: C340I
Recorded value: 1.22

Mutation: G197F
Recorded value: 0.852

Mutation: A404K
Recorded value: 1.05

Mutation: E329D
Recorded value: 1.74

Mutation: F82A
Recorded value: -0.904

Mutation: D98S
Recorded value: 0.163

Mutation: E167L
Recorded value: 1.76

Mutation: A202P
Recorded value: 0.867

Mutation: G112K
Recorded value: 0.268

Mutation: K253T
Recorded value: 0.479

Mutation: L255N
Recorded value: 0.614

Mutation: C322Y
Recorded value: 0.843

Mutation: D238K
Recorded value: 0.355

Mutation: C310L
Recorded value: 0.935

Mutation: R513S
Recorded value: 0.587

Mutation: H60L
Recorded value: -0.135

Mutation: Q275L
Recorded value: 1.03

Mutation: G263Y
Recorded value: 1.34

Mutation: D312P
Recorded value: 0.626

Mutation: L341D
Recorded value: 0.832

Mutation: I211A
Recorded value: -0.0822

Mutation: A451S
Recorded value: 0.496

Mutation: G197R
Recorded value: 1.01

Mutation: I209T
Recorded value: 0.1

Mutation: P148F
Recorded value: 1.53

Mutation: K245I
Recorded value: 0.196

Mutation: D439K
Recorded value: 0.809

Mutation: S332N
Recorded value: 1.56

Mutation: V38Y
Recorded value: 0.622

Mutation: V37R
Recorded value: 0.122

Mutation: D105N
Recorded value: 0.431

Mutation: A141V
Recorded value: 1

Mutation: R513I
Recorded value: 1.44

Mutation: V487A
Recorded value: 1.02

Mutation: P280F
Recorded value: 1.58

Mutation: T46C
Recorded value: 0.841

Mutation: P116R
Recorded value: 0.38

Mutation: V301S
Recorded value: 1

Mutation: E137W
Recorded value: 1.59

Mutation: P115M
Recorded value: 0.979

Mutation: V301T
Recorded value: 0.963

Mutation: G251A
Recorded value: 0.845

Mutation: W335P
Recorded value: 1.04

Mutation: P56Q
Recorded value: 0.746
